Kindly supply the reported solubility at 2 h values for the records listed here.
# experiment description: Kinetic solubility in PBS
# Format: physicochemical
# experimental parameters: phosphate-buffered saline, pH 7.4, aqueous buffer, kinetic from dmso stock
Give the quantity in µM, number only.

input: Any idea what solubility at 2 h was measured for CC1(C)Cc2cc(-c3nc(Cl)nc4c3ccn4[C@@H]3O[C@H](COP(=O)(O)CP(=O)(O)O)[C@@H](O)[C@H]3O)ccc2O1 ?
output: 86

input: What measured solubility at 2 h goes with O=P(O)(O)CP(=O)(O)OC[C@H]1O[C@@H](n2ccc3c(-c4ccoc4)ncnc32)[C@H](O)[C@@H]1O ?
output: 97

input: solubility at 2 h for O=P(O)(O)CP(=O)(O)OC[C@H]1O[C@@H](n2ccc3c(-c4ccc5ccccc5c4)nc(F)nc32)[C@H](O)[C@@H]1O [14D.7] ?
output: 85

input: What solubility at 2 h value was documented for this molecule, O=P(O)(O)CP(=O)(O)OC[C@H]1O[C@@H](n2ccc3c(-c4cc5ccccc5c5ccccc45)ncnc32)[C@H](O)[C@@H]1O ?
output: 68

input: If you can, please state the reported solubility at 2 h value of O=P(O)(O)CP(=O)(O)OC[C@H]1O[C@@H](n2ccc3c(-c4ccncc4)ncnc32)[C@H](O)[C@@H]1O .
output: 79

input: Look up solubility at 2 h for this molecule: O=P(O)(O)CP(=O)(O)OC[C@H]1O[C@@H](n2ccc3c(-c4ccc5cncnc5c4)ncnc32)[C@H](O)[C@@H]1O
output: 66

input: What solubility at 2 h value was documented for this molecule, Cc1nc(-c2ccc3ccccc3c2)c2ccn([C@@H]3O[C@H](COP(=O)(O)CP(=O)(O)O)[C@@H](O)[C@H]3O)c2n1 [18E.7] ?
output: 78

input: Query (molecule): COc1ccc2cc(-c3nc(Cl)nc4c3ccn4[C@@H]3O[C@H](COP(=O)(O)CP(=O)(O)O)[C@@H](O)[C@H]3O)ccc2c1 ; field requested: solubility at 2 h
output: 84

input: // solubility at 2 h lookup, key: O=P(O)(O)CP(=O)(O)OC[C@H]1O[C@@H](n2cnc3c(-c4cccc5ccccc45)ncnc32)[C@H](O)[C@@H]1O [31A.6]
output: 87

input: May I ask what solubility at 2 h has been recorded for O=P(O)(O)CP(=O)(O)OC[C@H]1O[C@@H](n2ccc3c(-c4ccccc4)ncnc32)[C@@H](F)[C@@H]1O [34A.5] ?
output: 245

---

Answer each item with its documented clearance.
# experiment description: In vivo pharmacokinetic study, intravenous
# Set-up: species or system male CD-1 mice
# experimental parameters: mouse, plasma, 1 mg/kg; male CD-1 mice, intravenous, single dose; read-out: Cl (obs), observed clearance

input: State the recorded clearance for this entry: Cc1nc(-c2ccc3ccccc3c2)c2ccn([C@@H]3O[C@H](COP(=O)(O)CP(=O)(O)O)[C@@H](O)[C@H]3O)c2n1 [18E.7]
output: 4.6 mL/min/kg

input: Need clearance, item O=P(O)(O)CP(=O)(O)OC[C@H]1O[C@@H](n2ccc3c(-c4cc5ccccc5c5ccccc45)ncnc32)[C@H](O)[C@@H]1O
output: 2 mL/min/kg

input: Quick one: clearance of O=P(O)(O)CP(=O)(O)OC[C@H]1O[C@@H](n2ccc3c(-c4cc5ccccc5o4)ncnc32)[C@H](O)[C@@H]1O ?
output: 11 mL/min/kg

input: Item O=P(O)(O)CP(=O)(O)OC[C@H]1O[C@@H](n2ccc3c(-c4cccc5c4CCCC5)nc(F)nc32)[C@H](O)[C@@H]1O [14D.12] has what recorded clearance?
output: 1.4 mL/min/kg

input: # lookup: clearance of O=P(O)(O)CP(=O)(O)OC[C@H]1O[C@@H](n2ccc3c(-c4ccc5c(c4)CCCC5)nc(I)nc32)[C@H](O)[C@@H]1O [27H.23]
output: 3.1 mL/min/kg

input: // clearance lookup, key: O=P(O)(O)CP(=O)(O)OC[C@H]1O[C@@H](n2ccc3c(-c4ccc5cc(F)ccc5c4)nc(Cl)nc32)[C@H](O)[C@@H]1O
output: 5.9 mL/min/kg

input: Which clearance is listed for O=P(O)(O)CP(=O)(O)OC[C@H]1O[C@@H](n2ccc3c(-c4ccnc5ccccc45)ncnc32)[C@H](O)[C@@H]1O ?
output: 7.2 mL/min/kg

input: Recorded clearance for O=P(O)(O)CP(=O)(O)OC[C@H]1O[C@@H](n2ccc3c(-c4ccnc5ccccc45)ncnc32)[C@@H](F)[C@@H]1O [34A.28] , please?
output: 18 mL/min/kg

input: For Cc1nc(-c2cccc3ccccc23)c2ccn([C@@H]3O[C@H](COP(=O)(O)CP(=O)(O)O)[C@@H](O)[C@H]3O)c2n1 [18E.6] , what is its reported clearance?
output: 0.32 mL/min/kg

input: Consider the compound shown here: COC(=O)c1ccc2cc(-c3nc(Cl)nc4c3ccn4[C@@H]3O[C@H](COP(=O)(O)CP(=O)(O)O)[C@@H](O)[C@H]3O)ccc2c1 What is its recorded clearance?
output: 7.2 mL/min/kg

input: Suppose we examine the compound O=P(O)(O)CP(=O)(O)OC[C@H]1O[C@@H](n2ccc3c(-c4cc5ccccc5[nH]4)nc(Cl)nc32)[C@H](O)[C@@H]1O ; what clearance value has been reported?
output: 12 mL/min/kg

input: Quick one: clearance of O=P(O)(O)CP(=O)(O)OC[C@H]1O[C@@H](n2ccc3c(-c4cc5ccccc5o4)nc(Cl)nc32)[C@H](O)[C@@H]1O ?
output: 8.8 mL/min/kg

input: What does the record list as clearance for O=P(O)(O)CP(=O)(O)OC[C@H]1O[C@@H](n2ccc3c(-c4cccc5ccccc45)ncnc32)[C@@H](F)[C@@H]1O [34A.6] ?
output: 19 mL/min/kg

---

# experiment description: In vivo pharmacokinetic study, intravenous
# Design: species or system male CD-1 mice
# experimental parameters: male, CD-1, mouse, plasma, iv, 1 mg/kg, footnote: t1/2 stability in plasma; text: half-life in mouse PK, intravenous
observable: log10 half-life (log10 of the value in min)
Please be aware that the numbers have been log10-transformed from half-life in min.

input: Suppose we examine the compound O=P(O)(O)CP(=O)(O)OC[C@H]1O[C@@H](n2ccc3c(-c4ccccc4)ncnc32)[C@@H](F)[C@@H]1O [34A.5] ; what log10 half-life value has been reported?
output: 2.49

input: Data request, read-out log10 half-life, for O=P(O)(O)CP(=O)(O)OC[C@H]1O[C@@H](n2ccc3c(-c4cc5ccccc5[nH]4)nc(Cl)nc32)[C@H](O)[C@@H]1O
output: 1.57

input: Using the record for Cc1nc(-c2cccc3ccccc23)c2ccn([C@@H]3O[C@H](COP(=O)(O)CP(=O)(O)O)[C@@H](O)[C@H]3O)c2n1 [18E.6] , report its log10 half-life.
output: 2.50

input: May I ask what log10 half-life has been recorded for O=P(O)(O)CP(=O)(O)OC[C@H]1O[C@@H](n2ccc3c(-c4cc5ccccc5o4)ncnc32)[C@H](O)[C@@H]1O ?
output: 0.95

input: Sample O=P(O)(O)CP(=O)(O)OC[C@H]1O[C@@H](n2ccc3c(-c4ccc5cc(O)ccc5c4)nc(Cl)nc32)[C@H](O)[C@@H]1O — what was its log10 half-life?
output: 0.83

input: Which value of log10 half-life has been reported for O=P(O)(O)CP(=O)(O)OC[C@H]1O[C@@H](n2ccc3c(-c4ccc5ccccc5c4)ncnc32)[C@H](O)[C@@H]1O in the records?
output: 2.40

input: Given the compound O=P(O)(O)CP(=O)(O)OC[C@H]1O[C@@H](n2ccc3c(-c4ccc5cc(F)ccc5c4)nc(Cl)nc32)[C@H](O)[C@@H]1O , what is its reported log10 half-life?
output: 1.23

---

# experiment description: Plasma stability assay, human plasma
observable: half-life at 10 µM

input: # input molecule: O=P(O)(O)CP(=O)(O)OC[C@H]1O[C@@H](n2ccc3c(-c4cc5ccccc5c5ccccc45)ncnc32)[C@H](O)[C@@H]1O ; wanted: its half-life at 10 µM
output: > 2 h

---

# experiment description: Microsomal stability assay, mouse liver microsomes
# Type: in vitro ADME
# experimental parameters: pooled liver microsomes, pH 7.4, read-out: Mics (m) CLint
observable: microsomal CLint at 10 µM

input: What value of measured microsomal CLint at 10 µM is listed for O=P(O)(O)CP(=O)(O)OC[C@H]1O[C@@H](n2ccc3c(-c4ccc5cc(F)ccc5c4)nc(Cl)nc32)[C@H](O)[C@@H]1O ?
output: < 2 µL/min/mg

input: // microsomal CLint at 10 µM lookup, key: O=P(O)(O)CP(=O)(O)OC[C@H]1O[C@@H](n2ccc3c(-c4cc(Br)c5ccccc5c4F)nc(Cl)nc32)[C@H](O)[C@@H]1O
output: < 2 µL/min/mg

input: Quick one: microsomal CLint at 10 µM for O=P(O)(O)CP(=O)(O)OC[C@H]1O[C@@H](n2ccc3c(-c4cccc5ccncc45)ncnc32)[C@H](O)[C@@H]1O ?
output: < 1 µL/min/mg

Origin of values: paper PMC12797170
